Assignment: determine reported cell viability for the given molecules.
Test system: SEM cells
PROTOCOL SUMMARY: cell viability relative to DMSO control; higher = less cytotoxic
TEST SETTINGS: HPLM + 10% dialyzed FBS; 48 h; 0.569 µM
The reply should contain only the number, in %.

Request: Let me know recorded cell viability for `CN(c1nccc(=O)[nH]1)C1CCN(c2nc3ccccc3n2Cc2ccc(F)cc2)CC1` , thanks.
Result: 108

Request: Let me know recorded cell viability for CC(=O)Oc1cc2c(s1)CCN(C(C(=O)C1CC1)c1ccccc1F)C2.Cl (configuration not stated) , thanks.
Result: 110

Request: Let me know recorded cell viability for `FC1=CC=C(CN2\C=C/C=C(/C(=O)N[C@@H](COC3=CC4=C(NC(=O)N4)C=C3)C5=CC=CC=C5)C2=O)C=C1F` , thanks.
Result: 93.3

Request: Let me know recorded cell viability for `O=[S+]([O-])(CCSSCC[S+](=O)([O-])[O][Na])[O][Na]` , thanks.
Result: 102

Request: Let me know recorded cell viability for `O=[S+]([O-])(O)c1ccc2cc(/N=N/c3cc([S+](=O)([O-])O)c4cccnc4c3O)ccc2c1` , thanks.
Result: 126

Request: Let me know recorded cell viability for `COc1ccc2c(OCc3nnc4ccc(-c5ccccc5)nn34)ccnc2c1` , thanks.
Result: 107

Request: Let me know recorded cell viability for `CCc1c(O)cc(O)c(C(=O)c2ccc(OCCN3CCOCC3)c(OC)c2)c1CC(=O)N(CCOC)CCOC` , thanks.
Result: 111

Request: Let me know recorded cell viability for `CO[C@H]1/C=C/O[C@@]2(C)Oc3c(C)c(O)c4c(O)c(c(/C=N\N5CCN(C6CCCC6)CC5)c(O)c4c3C2=O)NC(=O)/C(C)=C\C=C\[C@H](C)[C@H](O)[C@@H](C)[C@@H](O)[C@@H](C)[C@H](OC(C)=O)[C@@H]1C` , thanks.
Result: 6.95

Request: Let me know recorded cell viability for OC(CCN1CCCCC1)(C2CC\3CC2\C=C3)C4=CC=CC=C4 (configuration not stated) , thanks.
Result: 121

Request: Let me know recorded cell viability for `C=CCc1cc(OC)c(O)c(C(=O)NCCO)c1` , thanks.
Result: 112

Request: Let me know recorded cell viability for `CCCc1nc2c(C)cc(-c3nc4ccccc4n3C)cc2n1Cc1ccc(-c2ccccc2C(=O)O)cc1` , thanks.
Result: 100

Request: Let me know recorded cell viability for `CCN1\C=C(C(O)=O)/C(=O)C2=C1C=C(N3CCN(C)CC3)C(=C2)F` , thanks.
Result: 129

Request: Let me know recorded cell viability for `CCCCOc1ccc(CC(=O)NO)cc1` , thanks.
Result: 109

Request: Let me know recorded cell viability for `CN1\N=N/C2=C(N=C[N]2C1=O)C(N)=O` , thanks.
Result: 60.9

Request: Let me know recorded cell viability for `CN(C)/[N+]([O-])=N/Oc1cc(ON[N+](=O)N2CCN(C(=O)c3cc(Cc4n[nH]c(=O)c5ccccc45)ccc3F)CC2)c([N+](=O)[O-])cc1[N+](=O)[O-]` , thanks.
Result: 101

Request: Let me know recorded cell viability for CC(Cc1ccc(O)c(O)c1)(NN)C(=O)O (configuration not stated) , thanks.
Result: 105

Request: Let me know recorded cell viability for `Cc1cc(-c2nnc3n2CCCCC3)c(C)n1-c1ccccc1` , thanks.
Result: 120

Request: Let me know recorded cell viability for `NC/1=N/C(=O)N(C[C@@H](CO)OC[P](O)(O)=O)/C=C1` , thanks.
Result: 120

Request: Let me know recorded cell viability for `CCC[C@@H](C=O)NC(=O)[C@H](CC(C)C)NC(=O)[C@H](CC(C)C)NC(=O)OCc1ccccc1` , thanks.
Result: 132

Request: Let me know recorded cell viability for `CCCC1=N[N](C)C2=C1\N=C(/NC2=O)C3=CC(=CC=C3OCC)[S+]([O-])(=O)N4CCN(C)CC4` , thanks.
Result: 79.8

Request: Let me know recorded cell viability for `CNNCc1ccc(C(=O)NC(C)C)cc1` , thanks.
Result: 107

Request: Let me know recorded cell viability for CCc1cccc2c3c([nH]c12)C(CC)(CC(=O)O)OCC3 (configuration not stated) , thanks.
Result: 114

Request: Let me know recorded cell viability for `O=C(C[C@@H]1C/C=C\CCC(=O)O[C@H](c2ccccc2)CNC1=O)NCc1ccc(Cl)cc1` , thanks.
Result: 128

Request: Let me know recorded cell viability for `Nc1nc2ccc(OC(F)(F)F)cc2s1` , thanks.
Result: 131

Request: Let me know recorded cell viability for `CC(=O)OCC(=O)[C@@]12OC(C)(C)O[C@@H]1C[C@H]3[C@@H]4C[C@H](F)C/5=C/C(=O)/C=C\[C@]5(C)[C@@]4(F)[C@@H](O)C[C@]23C` , thanks.
Result: 21.4

Request: Let me know recorded cell viability for `C[C@H]1[C@H](O)O[C@@H]2O[C@@]3(C)CC[C@H]4[C@H](C)CC[C@@H]1[C@@]24OO3` , thanks.
Result: 105

Request: Let me know recorded cell viability for `Cc1ccc(NC(=O)Nc2cc(C(F)(F)F)ccc2F)cc1Nc1ccc2c(c1)NC(=O)/C2=C\c1ccc[nH]1` , thanks.
Result: 131

Values were extracted from the supplement of paper PMC11451515.
